The measurements presented in this section are drawn from paper doi:10.1101/2024.10.22.619416.

Biological target: SARS-CoV-2 (2019-nCoV) Spike RBD protein (SARS-CoV-2 (2019-nCoV), ancestral …, UniProt P0DTC2)
Assay: BLI
recorded-endpoint: Kd
Provide a numeric answer, followed by its unit.

humanized nanobody hNb1.2 (VHH) VHH: EVQLVESGGGLVQPGGSLRLSCAASGSISTLNVMSWVRQAPGKGLEWVSSITLDGSPYYADSVKGRFTISRDNSKNTLYLQMNSLRVEDTAVYYCKLENGGFFYYWGQGTLVTVSS
45.7 nM
humanized antibody hAb1.2 (antibody, V domains shown) VH: QVQLQESGPGLVKPSETLSLTCTVSGFSLINYAISWIRQAPGKGLEWIGVIWTGGGTNYNSALKSRLTISRDTSKSQVFLKLNSVTAADTAVYYCARKDYYGRYYGMDYWGQGTLVTVSS VL: QAVVTQEPSLTVSPGGTVTLTCRSSTGAVTTSNYANWFQQKPGQAPRGLIGGTNNRAPWVPDRFSGSLLGGKAALTLSGAQPEDEADYYCALWYNNHWVFGGGTKLTVL
0.15 nM

query: Return reported Kd; argument: humanized antibody hAb1.4 (antibody, V domains shown) VH: QVQLQESGPGLVKPSETLSLTCTVSGFSLINYAISWVRQAPGKGLEWIGVIWTGGGTNYNSALKSRLTISVDTSKSQVSLRLSSVTAADTAVYYCARKDYYGRYYGMDYWGQGTLVTVSS VL: QAVVTQEPSLTVSPGGTVTLTCRSSTGAVTTSNYANWFQQKPGQAPRGLIGGTNNRAPGVPARFSGSILGGKAALTLSGAQPEDEADYYCALWYNNHWVFGGGTKLTVL
result: 1.03 nM
